Taken from patent US20260098059A1.

- system: T1, β-catenin (UniProt P35222 134-665, limits assumed, biotinylated in the SPR and plate assays)
- T1 sequence (looked up): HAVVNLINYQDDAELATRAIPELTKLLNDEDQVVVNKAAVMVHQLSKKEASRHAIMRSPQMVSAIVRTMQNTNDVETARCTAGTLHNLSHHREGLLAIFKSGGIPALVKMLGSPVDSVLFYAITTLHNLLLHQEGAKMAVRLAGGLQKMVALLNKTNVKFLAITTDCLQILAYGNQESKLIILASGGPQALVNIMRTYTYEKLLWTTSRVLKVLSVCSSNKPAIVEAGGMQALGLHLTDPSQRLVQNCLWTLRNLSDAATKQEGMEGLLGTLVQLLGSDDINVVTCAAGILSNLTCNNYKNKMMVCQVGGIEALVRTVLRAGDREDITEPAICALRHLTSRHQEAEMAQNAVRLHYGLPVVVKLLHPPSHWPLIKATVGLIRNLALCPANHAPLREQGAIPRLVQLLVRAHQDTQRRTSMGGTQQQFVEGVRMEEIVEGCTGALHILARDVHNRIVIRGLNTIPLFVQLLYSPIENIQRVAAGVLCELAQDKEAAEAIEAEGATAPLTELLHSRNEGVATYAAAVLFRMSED
- test-summary: cell-based or functional assay
Bridges are numbered along the chain shown (N, C = ends). Where no end group is shown, it is not given here. [ ]: non-standard residue; d: D form. NMeA = CN[C@@H](C)C(=O)O
Consider the following binders and their measured Wnt Reporter EC50 readings.

binder | Wnt Reporter EC50
W[NMeA]QSILDEHVQKVWG-NH2 (lactam 8-12; not fully specified (N-terminus); printed as H17C8C(O)NH-W-NmeA-QSILDE*HVQK*VWG-NH2) [SEQ ID NO: 438] | ≤ 7.5 µM
KMWFLISFWD (HELM PEPTIDE1{K.M.W.F.L.I.S.F.W.D}$PEPTIDE1,PEPTIDE1,1:R3-10:R3$$$V2.0; SMILES CC[C@H](C)[C@@H]1NC(=O)[C@H](CC(C)C)NC(=O)[C@H](Cc2ccccc2)NC(=O)[C@H](Cc2c[nH]c3ccccc23)NC(=O)[C@H](CCSC)NC(=O)[C@@H](N)CCCCNC(=O)C[C@@H](C(=O)O)NC(=O)[C@H](Cc2c[nH]c3ccccc23)NC(=O)[C@H](Cc2ccccc2)NC(=O)[C@H](CO)NC1=O) [SEQ ID NO: 171] | ≤ 7.5 µM
KWXLISAWD (HELM PEPTIDE1{K.W.[CC(C)(C)[C@H](N[*:1])C(=O)[*:2]].L.I.S.A.W.D}$PEPTIDE1,PEPTIDE1,1:R3-9:R3$$$V2.0; SMILES CC[C@H](C)[C@@H]1NC(=O)[C@H](CC(C)C)NC(=O)[C@H](C(C)(C)C)NC(=O)[C@H](Cc2c[nH]c3ccccc23)NC(=O)[C@@H](N)CCCCNC(=O)C[C@@H](C(=O)O)NC(=O)[C@H](Cc2c[nH]c3ccccc23)NC(=O)[C@H](C)NC(=O)[C@H](CO)NC1=O) [SEQ ID NO: 205] | > 30 µM
WPQSILDEHGQKVW (not fully specified; Lauroyl-NH-WPQSILDE*H-Chg-QK*VW-NH2) [SEQ ID NO: 469] | ≤ 7.5 µM
